What IC50 was measured for each of the following?
- testedSystem: UniProt Q96S37
- measurementProtocol: Inhibition of 14C uric acid transport by HEK293 cell line stably transfected with the URAT-1 gene
- conditionContext: URAT-1 (HEK293) cells; 14C-labelled uric acid 50 um, 10 min at 37° C.; read-out: IC50 (inhibition against URAT-1)
- Protocol: Determination of the IC50 value of the inhibitory activity of the compound against uric acid reabsorption by the HEK293 cell line stably transfected with the URAT-1 (uric acid transporter) gene. […] ^14C-labelled uric acid was diluted and added into plate, and the final concentration is 50 um. […] The signal was read by liquid scintillation counter Tri-Carb. e) data analysis URAT-1 inhibition by the treatment of the compounds was analyzed by calculating the percentage of inhibition. […]

Item: O=C(O)C1(Sc2nnc(Br)n2-c2cc(Cl)c(C3CC3)s2)CCC1 [WX068] | IC50: 2 to 20 µM

Sure, the documented IC50 for Cc1cc(-n2c(Br)nnc2SC(C)(C)C(=O)O)sc1C1CC1 [WX089] is 2 to 20 µM

# molecule CC(C)(C)c1ccc(-c2sc(-n3c(Br)nnc3SCC(=O)O)c3c2CCC3)cc1 [WX046] ; its IC50 = > 20 µM

The molecule CC(C)(Sc1nnc(Br)n1-c1sc(C2CC2)c2c1CCC2)C(=O)NO [WX102] showed IC50 equal to 2 to 20 µM

According to the records, this molecule CCOC(=O)C(C)Sc1nncn1-c1cc(Br)c(C2CC2)s1 (centres unmarked) [WX074] displays IC50 of > 20 µM

Measured IC50 of Cc1cc(-n2c(Br)nnc2SCC(=O)O)sc1-c1ccc(F)cc1 [WX082] : > 20 µM

Noted for Cc1cc(-n2c(Br)nnc2SC(C)C(=O)O)sc1-c1ccccc1 (centres unmarked) [WX080] : its IC50 reads 2 to 20 µM

Memo: Cc1cc(-n2c(Br)nnc2SCC(=O)O)sc1-c1ccc(C(F)(F)F)cc1 [WX084] , reported IC50: > 20 µM

Measured IC50 of CCC(C)(Sc1nnc(Br)n1-c1sc(C2CC2)c2c1CCC2)C(=O)O (centres unmarked) [WX063] : < 2 µM

Please fill in: IC50 reported for Cc1cc(-n2c(Br)nnc2SC(C)C(=O)O)sc1-c1cccc(F)c1 (centres unmarked) [WX087] = 2 to 20 µM

The recorded IC50 for entry CC(C)(Sc1nnc(Br)n1-c1sc(-c2ccc(F)c(F)c2)c2c1CCCC2)C(=O)O [WX013] equals < 2 µM

Value of IC50 reported for the molecule CC(C)(Sc1nnc(Br)n1-c1cc(Cl)c(C2CC2)s1)C(=O)O [WX067] is < 2 µM

The molecule listed as O=C(O)C1(Sc2nnc(Br)n2-c2sc(C3CC3)c3c2CCC3)CCCC1 [WX060] shows IC50 equal to < 2 µM

The reported value for Cn1cc(-c2sc(-n3cnnc3SCC(=O)O)c3c2CCC3)cn1 [WX056] in terms of IC50 is > 20 µM

# IC50 of COC(=O)CSc1nncn1-c1cc(Br)c(-c2ccccc2)s1 [WX073] = > 20 µM

So, CC1(C)Cc2c(C3CC3)sc(-n3c(Br)nnc3SC(C)(C)C(=O)O)c2C1 [WX065] ? Its IC50 was < 2 µM

Consider O=C(O)C1(Sc2nnc(Br)n2-c2sc(C3CC3)c3c2CCCC3)CCCC1 [WX030] . Its measured IC50 is < 2 µM

Entry O=C(O)CSc1nnc(Br)n1-c1sc(-c2ccc(F)cc2)c2c1CCCC2 [WX006] , IC50 reported as 2 to 20 µM

For reference, reported IC50 for Cc1ccc(-c2sc(-n3cnnc3SCC(=O)O)c3c2CCC3)cc1 [WX050] stands at > 20 µM

// IC50 lookup, molecule = O=C(O)CSc1nnc(Br)n1-c1sc(-c2ccc(Cl)cc2)c2c1CCC2 [WX040] , result: > 20 µM

CC(C)c1nnc(SCC(=O)O)n1-c1sc(C2CC2)c2c1CCC2 [WX101] has a reported IC50 of > 20 µM

The molecule identified as O=C(O)C1(Sc2nnc(Br)n2-c2sc(C3CC3)c3c2CCCC3)CCC1 [WX029] registered its IC50 at < 2 µM

So, CC(Sc1nnc(Br)n1-c1sc(C2CC2)c2c1CCCC2)C(=O)O (centres unmarked) [WX026] ? Its IC50 was < 2 µM

Record O=C(O)CSc1nncn1-c1sc(-c2cccc(F)c2)c2c1CCCC2 [WX020] , field IC50: > 20 µM

# molecule CCOC(=O)C(C)(C)Sc1nncn1-c1sc(C(=O)NC(O)CCBr)c2c1CCCC2 (centres unmarked) [WX103] ; its IC50 = 2 to 20 µM

Looking up Cc1ccc(-c2sc(-n3c(Br)nnc3SCC(=O)O)c3c2CCC3)cc1 [WX042] , I see its IC50 listed as > 20 µM

Just so you know, measured IC50 for CC(C)(Sc1nnc(Br)n1-c1sc(C2CC2)c2c1CCC(F)(F)C2)C(=O)O [WX033] came out at < 2 µM

Lab book: IC50 of CCC(Sc1nnc(Br)n1-c1cc(C)c(C2CC2)s1)C(=O)O (centres unmarked) [WX091] noted as < 2 µM

Recorded IC50 (molecule O=C(O)CSc1nnc(Br)n1-c1sc(-c2ccc(C(F)(F)F)cc2)c2c1CCC2 [WX044] ): > 20 µM

Notebook: O=C(O)C1(Sc2nnc(Br)n2-c2sc(C3CC3)c3c2CCC3)CCC1 [WX059] , IC50 read as < 2 µM

Entry Cc1cc(-n2c(Br)nnc2SCC(=O)O)sc1C1CC1 [WX078] ; IC50 = > 20 µM

Entry COc1ccc(-c2sc(-n3c(Br)nnc3SCC(=O)O)cc2C)cc1 [WX083] ; IC50 = > 20 µM

So for O=C(O)CSc1nnc(Br)n1-c1sc(-c2cccc(Cl)c2)c2c1CCC2 [WX045] , the logged IC50 turned out to be > 20 µM

The molecule listed as CC(C)(Sc1nnc(Br)n1-c1sc(-c2ccc(C(F)(F)F)cc2)c2c1CCCC2)C(=O)O [WX010] shows IC50 equal to 2 to 20 µM

Measured IC50, O=C(O)CSc1nnc(Br)n1-c1sc(-c2cccc(F)c2)c2c1CCCC2 [WX007] : 2 to 20 µM

Field IC50 (entry Cc1cc(-n2c(Br)nnc2SC(C)(C)C(=O)O)sc1-c1ccccc1 [WX081] ) reads 2 to 20 µM

Measured IC50 of COc1ccc(-c2sc(-n3cnnc3SCC(=O)O)c3c2CCC3)cc1 [WX049] : > 20 µM

IC50 reported for this molecule CC(Sc1nnc(Br)n1-c1sc(-c2ccc(C(F)(F)F)cc2)c2c1CCCC2)C(=O)O (centres unmarked) [WX014] : < 2 µM

---

- testedSystem: URAT-1 (uric acid transporter) (Homo sapiens (Human), UniProt Q96S37)
- Sequence (Q96S37 whole entry): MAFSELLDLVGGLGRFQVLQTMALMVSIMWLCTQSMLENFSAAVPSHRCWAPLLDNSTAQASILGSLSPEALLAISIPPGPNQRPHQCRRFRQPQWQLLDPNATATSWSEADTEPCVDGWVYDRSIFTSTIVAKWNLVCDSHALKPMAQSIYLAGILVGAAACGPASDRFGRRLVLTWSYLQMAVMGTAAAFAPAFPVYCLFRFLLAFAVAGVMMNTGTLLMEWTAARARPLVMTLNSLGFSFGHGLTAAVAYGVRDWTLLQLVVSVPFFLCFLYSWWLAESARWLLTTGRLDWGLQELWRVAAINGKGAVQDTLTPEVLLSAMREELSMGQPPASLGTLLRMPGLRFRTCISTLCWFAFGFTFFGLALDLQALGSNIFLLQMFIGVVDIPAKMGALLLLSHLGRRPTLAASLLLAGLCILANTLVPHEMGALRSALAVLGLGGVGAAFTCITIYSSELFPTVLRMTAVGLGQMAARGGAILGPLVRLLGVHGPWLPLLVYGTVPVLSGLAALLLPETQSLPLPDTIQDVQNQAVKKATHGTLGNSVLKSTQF
- measurementProtocol: Inhibition of 14C uric acid transport by HEK293 cell line stably transfected with the URAT-1 gene
- conditionContext: URAT-1 (HEK293) cells; 14C-labelled uric acid 50 um, 10 min at 37° C.; read-out: IC50 (inhibition against URAT-1)
What IC50 was measured for each of the following?

IC50 in this record for O=C(O)CSc1nnc(Br)n1-c1sc(C2CC2)c2c1CCCC2 [WX001] : < 2 µM

Reported IC50 of COc1ccc(-c2sc(-n3c(Br)nnc3SC(C)(C)C(=O)O)cc2Cl)cc1 [WX071] : 2 to 20 µM

GET /value?item= O=C(O)CSc1nncn1-c1sc(C2CC2)c2c1CCCC2 [WX002] &field=IC50 returns > 20 µM

Per the record, Cc1cc(-n2c(Br)nnc2SC(C(=O)O)C(C)C)sc1C1CC1 (centres unmarked) [WX088] has IC50 of < 2 µM

So, O=C(O)CSc1nnc(Br)n1-c1sc(-c2cc(F)cc(F)c2)c2c1CCCC2 [WX009] ? Its IC50 was < 2 µM

Every entry's value here was drawn from patent US10829483B2.
